Target: HIV reverse transcriptase (Human immunodeficiency virus type 1 group M subtype B, UniProt P04585)
Construct: HIV reverse transcriptase has an RNase H domain at the C-terminus of its p66 subunit
Assay: Inhibition of HIV reverse transcriptase (RNase H fluorescent probe assay), Table I
measuredEndpoint: log10(IC50) (log10 of the value in µM)
Values below are the log10 of the recorded IC50, with µM as the unit.

Some compounds with recorded log10(IC50):
c1ccc(Cn2c(SCc3ccncc3)nnc2-c2ccccn2)cc1 = 0.41
Clc1ccc(CSc2nnc(-c3ccco3)n2Cc2ccccc2)cc1 = 0.58
COc1ccc(Cn2c(SCc3ccc(C(F)(F)F)cc3)nnc2-c2ccco2)cc1 = 0.81
COc1ccc(CSc2nnc(-c3ccccn3)n2Cc2ccccc2)cc1 = 0.85
c1ccc(CSc2nnc(-c3ccccc3)n2Cc2ccccc2)cc1 = 0.00

**Query** For the compound shown here, "FC(F)(F)c1ccc(CSc2nnc(-c3ccco3)n2-c2ccccc2)cc1" , give the reported log10(IC50).
**Result** 0.67

**Query** Thanks! And "Clc1ccc(CSc2nnc(-c3ccccn3)n2Cc2ccccc2)cc1" ?
**Result** 1.36

**Query** Next compound up: "Clc1ccc(CSc2nnc(-c3cccs3)n2Cc2ccccc2)cc1"
**Result** 0.11

**Query** Cool, now "COc1ccc(CSc2nnc(-c3ccccc3)n2Cc2ccccc2)cc1"
**Result** 0.00

**Query** What do we get for "Clc1ccc(CSc2nnc(-c3ccccc3)n2Cc2ccccc2)cc1" ?
**Result** 0.78
